ASSAY_TARGET: hSSB1 (Homo sapiens, UniProt Q9BQ15 Q9BQ15:1-211)
Sequence (Q9BQ15 whole entry, one chain of several): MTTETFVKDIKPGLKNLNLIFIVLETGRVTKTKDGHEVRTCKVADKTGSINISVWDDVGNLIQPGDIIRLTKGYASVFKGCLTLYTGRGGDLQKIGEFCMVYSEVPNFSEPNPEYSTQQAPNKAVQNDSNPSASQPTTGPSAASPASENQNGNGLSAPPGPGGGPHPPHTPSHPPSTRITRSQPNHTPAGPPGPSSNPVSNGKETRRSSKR
METHOD: SPR; LSA_In3E3 = 1
# log10 of binding signal per record follows
Use the decimal logarithm of binding signal (normalized Rmax).

BINDER: CCAGACAGCUGGUGUCGCCU (ssRNA, 2'-OMe all, PS all) [In3LSA_scr3_5]
RECORDED_VALUE: -0.12
--
BINDER: CAGAGGCAGCAGUACGACGGCAGAGGCAGC (ssRNA, 2'-OMe all, PS all) [LSA_ATG 30-mer (DKLS428543)]
RECORDED_VALUE: 0.28
--
BINDER: GAGAACCGACUCGGGUAGAG (ssRNA, 2'-OMe all, PS all) [cdca3_L_ATG-3]
RECORDED_VALUE: 0.04
--
BINDER: AGCCGGAC (ssRNA, 2'-OMe all, PS all [2'-OMe at 1-8 (all); PS at all linkages]) [In3E3 both-end truncation 8 nt]
RECORDED_VALUE: -1.15
--
BINDER: CCAGUGAGCC (ssRNA, 2'-OMe all, PS all) [In3E3 3' truncation 10 nt]
RECORDED_VALUE: -0.96
--
BINDER: GAGCCGGACUUGCCU (ssRNA, 2'-OMe all, PS all) [In3E3 5' truncation 15 nt]
RECORDED_VALUE: -0.40
--
BINDER: CUCAUUCCUACCGACACCCC (ssRNA, 2'-OMe all, phosphodiester) [Neg_C 2'-OMe PD (DKLS341370)]
RECORDED_VALUE: -0.43
--
BINDER: CCAGUGAGCCGGAC (ssRNA, 2'-OMe all, PS all) [In3E3 3' truncation 14 nt]
RECORDED_VALUE: -0.46
--
BINDER: CCAGUGAGCCGGACUUGCCU (ssRNA, 2'-OMe all, PS three at each end) [In3E3 2'-OMe PS ends (DKLS621499)]
RECORDED_VALUE: -0.92
--
BINDER: CUGAAGCGUACCCUUUGGUG (ssRNA, 2'-OMe all, PS all) [ASO_E3E4]
RECORDED_VALUE: -0.12

Please turn your attention to the following entry.
Data request: What value of measured log10 of binding signal is listed for CCAGUGAGCCGGACUUG (ssRNA, 2'-OMe all, PS all) [In3E3 3' truncation 17 nt] ?
Data returned: -0.23
